method: Co-solvent and surfactant effects on pirfenidone saturation solubility
Assay type: physicochemical
protocol conditions: aqueous co-solvent/surfactant solvent system, pH 6.2, aqueous with cosolvent or surfactant or cyclodextrin, thermodynamic from solid, 8% PG, 0.1% CPB, 91.9% water, pH 6.2
measure: solubility (mg/mL)
Numbers only, in mg/mL.

solubility reported for this compound Cc1ccc(=O)n(-c2ccccc2)c1 : 23.4

----------
method: Pharmacokinetics and tissue distribution (lung, plasma, heart, kidney) of co-solvent formulations, intratracheal bolus aerosol
Type: in vivo, Sprague-Dawley rats
protocol conditions: Sprague-Dawley, rat, heart, other: intratracheal bolus aerosol, 4 mg/kg, Pirfenidone, heart tissue, Mean, Group 6; 2.5 hr; about 4 mg/kg IT aerosol
measure: concentration at 2.5 h (ng/g)
One number for each entry, in ng/g.

Field concentration at 2.5 h (entry Cc1ccc(=O)n(-c2ccccc2)c1 [pirfenidone, 5-methyl-1-phenyl-2-(1H)-pyridone] ) reads 120

----------
method: Buffer and pH effects study: pirfenidone saturation solubility
Assay type: physicochemical
protocol conditions: citrate buffer, pH 6, aqueous buffer, thermodynamic from solid, Citrate buffer 5 mM, pH 6, ambient temperature overnight
measure: solubility (mg/mL)
Give bare numbers, in mg/mL.

Reported solubility of Cc1ccc(=O)n(-c2ccccc2)c1 : 18.4

----------
method: Co-solvent and surfactant effects on pirfenidone saturation solubility
Format: physicochemical
protocol conditions: citrate buffer with co-solvent, pH 4.5, aqueous buffer, thermodynamic from solid, 4% EtOH, 96.0% citrate buffer (10 mM), pH 4.5
measure: solubility (mg/mL)
Answers are plain numbers, in mg/mL.

Data point: Cc1ccc(=O)n(-c2ccccc2)c1 ; solubility = 22.3

----------
method: Co-solvent and surfactant effects on pirfenidone saturation solubility
Type: physicochemical
protocol conditions: citrate buffer with co-solvent, pH 4.4, aqueous buffer, thermodynamic from solid, 4% Gly, 96.0% citrate buffer (10 mM), pH 4.4
measure: solubility (mg/mL)
Numbers only, in mg/mL.

// Cc1ccc(=O)n(-c2ccccc2)c1 [pirfenidone, 5-methyl-1-phenyl-2-(1H)-pyridone] : solubility value = 19.8

----------
method: Pharmacokinetics and tissue distribution (lung, plasma, heart, kidney) of co-solvent formulations, intratracheal bolus aerosol
Format: in vivo, Sprague-Dawley rats
protocol conditions: Sprague-Dawley, rat, kidney, other: intratracheal bolus aerosol, 4 mg/kg, Pirfenidone, kidney tissue, Mean, Group 1; 0 hr; about 4 mg/kg IT aerosol
Description: Selected formulations were prepared for pharmacokinetic analysis following aerosol delivery to rat lung. […] Formulations prepared for this study are outlined in Table 9. […] The sample was agitated until completely dissolved. […] Filtered samples were analyzed by HPLC.
measure: concentration at 0 h
Reply with a number, then the unit it belongs to.

For Cc1ccc(=O)n(-c2ccccc2)c1 [pirfenidone, 5-methyl-1-phenyl-2-(1H)-pyridone] the compound record lists concentration at 0 h as 10 ng/g

----------
method: Pharmacokinetics and tissue distribution (lung, plasma, heart, kidney) of co-solvent formulations, intratracheal bolus aerosol
Assay type: in vivo, Sprague-Dawley rats
protocol conditions: Sprague-Dawley, rat, kidney, other: intratracheal bolus aerosol, 4 mg/kg, Pirfenidone, kidney tissue, Mean, Group 6; 0.167 hr; about 4 mg/kg IT aerosol
measure: concentration at 0.167 h (ng/g)
Numbers only, in ng/g.

For Cc1ccc(=O)n(-c2ccccc2)c1 the molecule record lists concentration at 0.167 h as 6650

----------
method: Co-solvent and surfactant effects on pirfenidone saturation solubility
Assay type: physicochemical
protocol conditions: aqueous co-solvent/surfactant solvent system, pH 6.6, aqueous with cosolvent or surfactant or cyclodextrin, thermodynamic from solid, 4% EtOH, 8% PG, 88.0% phosphate buffer (5 mM), pH 6.6
measure: solubility (mg/mL)
Give bare numbers, in mg/mL.

Value of measured solubility for the entry Cc1ccc(=O)n(-c2ccccc2)c1 [pirfenidone, 5-methyl-1-phenyl-2-(1H)-pyridone] : 27.2

----------
method: Co-solvent and surfactant effects on pirfenidone saturation solubility
Assay type: physicochemical
protocol conditions: aqueous co-solvent/surfactant solvent system, pH 6.7, aqueous with cosolvent or surfactant or cyclodextrin, thermodynamic from solid, 8% EtOH, 12% PG, 80% phosphate buffer (5 mM), pH 6.7
measure: solubility (mg/mL)
Answers are plain numbers, in mg/mL.

Value of measured solubility for the entry Cc1ccc(=O)n(-c2ccccc2)c1 [pirfenidone, 5-methyl-1-phenyl-2-(1H)-pyridone] : 37.7

----------
method: Co-solvent and surfactant effects on pirfenidone saturation solubility
Type: physicochemical
protocol conditions: citrate buffer with co-solvent, pH 4.4, aqueous with cosolvent or surfactant or cyclodextrin, thermodynamic from solid, 8% PG, 92.0% citrate buffer (10 mM), pH 4.4
measure: solubility
Please format your answer as a value with the unit trailing.

Kindly note the recorded solubility for Cc1ccc(=O)n(-c2ccccc2)c1 , which is 23.2 mg/mL

----------
method: Pharmacokinetics and tissue distribution (lung, plasma, heart, kidney) of co-solvent formulations, intratracheal bolus aerosol
Format: in vivo, Sprague-Dawley rats
protocol conditions: Sprague-Dawley, rat, heart, other: intratracheal bolus aerosol (nebulizing catheter), 4 mg/kg, Pirfenidone, heart tissue, Mean, Group 2; 0.167 hr; about 4 mg/kg IT aerosol
measure: concentration at 0.167 hr (ng/g)
One number for each entry, in ng/g.

Notebook: Cc1ccc(=O)n(-c2ccccc2)c1 , concentration at 0.167 hr read as 4100

----------
method: Extended-duration intratracheal and oral pharmacokinetic study
Assay type: in vivo, Wistar rats
protocol conditions: Wistar, rat, plasma, inhaled or intranasal; intratracheal aerosol 2.5 mg/kg
measure: Cmax

Entry Cc1ccc(=O)n(-c2ccccc2)c1 — recorded Cmax = 3400 ng/mL

----------
method: Extended-duration intratracheal and oral pharmacokinetic study
Format: in vivo, Wistar rats
protocol conditions: oral gavage 10 mg/kg
measure: Lung Tissue AUC(0-2 hr)

Record Cc1ccc(=O)n(-c2ccccc2)c1 [pirfenidone, 5-methyl-1-phenyl-2-(1H)-pyridone] , field Lung Tissue AUC(0-2 hr): 4.9 µg·h/g

----------
method: Extended-duration intratracheal and oral pharmacokinetic study
Type: in vivo, Wistar rats
protocol conditions: Wistar, rat, plasma; oral gavage 10 mg/kg
measure: Cmax (ng/mL)
Numbers only, in ng/mL.

Consider Cc1ccc(=O)n(-c2ccccc2)c1 [pirfenidone, 5-methyl-1-phenyl-2-(1H)-pyridone] . Its measured Cmax is 3600

----------
method: Buffer and pH effects study: pirfenidone saturation solubility
Assay type: physicochemical
protocol conditions: phosphate buffer, pH 6, aqueous buffer, thermodynamic from solid, Phosphate buffer 5 mM, pH 6, ambient temperature overnight
measure: solubility (mg/mL)
Numbers only, in mg/mL.

Reported solubility of Cc1ccc(=O)n(-c2ccccc2)c1 : 18.3

----------
method: Co-solvent and surfactant effects on pirfenidone saturation solubility;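 also: samples equilibrated by overnight agitation at ambient temperature, with solubility taken from the supernatant after undissolved solid was removed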
Format: physicochemical
protocol conditions: aqueous co-solvent/surfactant solvent system, pH 6.8, aqueous with cosolvent or surfactant or cyclodextrin, thermodynamic from solid, 2% EtOH, 16% PG, 82% phosphate buffer (5 mM), pH 6.8
measure: solubility (mg/mL)
One number for each entry, in mg/mL.

Recorded result, Cc1ccc(=O)n(-c2ccccc2)c1 , solubility: 31

----------
method: Intravenous push of pirfenidone, plasma and lung levels
Type: in vivo
protocol conditions: plasma; 40 mg/kg intravenous dose, mouse
measure: Cmax

Memo: Cc1ccc(=O)n(-c2ccccc2)c1 , reported Cmax: ~55 µg/mL

----------
method: Pharmacokinetics and lung-tissue distribution after oral gavage or intratracheal aerosol
Type: in vivo, Sprague-Dawley rats
protocol conditions: Sprague-Dawley, rat, lung, inhaled or intranasal, 1 mg/kg, aerosol 1 mg/kg; read-out: Lung T1/2 β
measure: half-life (min)
One number for each entry, in min.

Entry Cc1ccc(=O)n(-c2ccccc2)c1 , half-life reported as 45

----------
method: Buffer and pH effects study: pirfenidone saturation solubility
Assay type: physicochemical
protocol conditions: citrate buffer, pH 4, aqueous buffer, thermodynamic from solid, Citrate buffer 50 mM, pH 4, ambient temperature overnight
measure: solubility (mg/mL)
Give bare numbers, in mg/mL.

Cc1ccc(=O)n(-c2ccccc2)c1 yielded solubility of 18.1

----------
method: Pharmacokinetics and lung-tissue distribution after oral gavage or intratracheal aerosol
Type: in vivo, Sprague-Dawley rats
protocol conditions: Sprague-Dawley, rat, plasma, inhaled or intranasal, 5 mg/kg, aerosol 5 mg/kg; read-out: Plasma T1/2
measure: half-life (min)
Give bare numbers, in min.

Quick note, half-life for Cc1ccc(=O)n(-c2ccccc2)c1 [pirfenidone, 5-methyl-1-phenyl-2-(1H)-pyridone] landed at 30

----------
method: Pharmacokinetics and tissue distribution (lung, plasma, heart, kidney) of co-solvent formulations, intratracheal bolus aerosol
Format: in vivo, Sprague-Dawley rats
protocol conditions: Sprague-Dawley, rat, heart, other: intratracheal bolus aerosol, 4 mg/kg, Pirfenidone, heart tissue, Mean, Group 1; 0.0667 hr; about 4 mg/kg IT aerosol
measure: concentration at 4 min (ng/g)
One number for each entry, in ng/g.

Lab book: concentration at 4 min of Cc1ccc(=O)n(-c2ccccc2)c1 [pirfenidone, 5-methyl-1-phenyl-2-(1H)-pyridone] noted as 7900

----------
method: Buffer and pH effects study: pirfenidone saturation solubility
Format: physicochemical
protocol conditions: phosphate buffer, pH 6, aqueous buffer, thermodynamic from solid, Phosphate buffer 50 mM, pH 6, ambient temperature overnight
measure: solubility (mg/mL)
Give bare numbers, in mg/mL.

Kindly note the recorded solubility for Cc1ccc(=O)n(-c2ccccc2)c1 , which is 17.2

----------
method: Pharmacokinetics and tissue distribution (lung, plasma, heart, kidney) of co-solvent formulations, intratracheal bolus aerosol
Assay type: in vivo, Sprague-Dawley rats
protocol conditions: Sprague-Dawley, rat, heart, other: intratracheal bolus aerosol, 4 mg/kg, Pirfenidone, heart tissue, Mean, Group 1; 0 hr; about 4 mg/kg IT aerosol
measure: concentration at 0 h (ng/g)
One number for each entry, in ng/g.

// concentration at 0 h lookup, compound = Cc1ccc(=O)n(-c2ccccc2)c1 [pirfenidone, 5-methyl-1-phenyl-2-(1H)-pyridone] , result: 20

Origin of measurements: patent US10028966B2
